# Tested on: SEM cells
# Protocol: cell viability relative to DMSO control; higher = less cytotoxic
# Experimental Parameters: RPMI 5 mM glucose + 10% dialyzed FBS; 48 h; 46.1 µM
We begin with a simple list: items and their reported cell viability.
Property Label: cell viability (%)

INSERT INTO assay_data (molecule, quantity_unit, numeric_value) VALUES
  ('CCCCN(CCCC)CCC(O)c1cc2c(Cl)cc(Cl)cc2c2cc(C(F)(F)F)ccc12 (stereo not drawn)', '%', 105),
  ('CCOC(=O)Nc1ccc(NCc2ccc(F)cc2)cc1N', '%', 83.5),
  ('Cc1cc(Nc2ncc(Cl)c(Nc3ccccc3[S+](=O)([O-])C(C)C)n2)c(OC(C)C)cc1C1CCNCC1', '%', 6.92),
  ('O=C1CSC(=O)N1C(CCc1ccncc1)COc1ccc(-c2cccc([N+](=O)[O-])c2)cc1 (stereo not drawn)', '%', 75.1),
  ('CN(N=O)C(=O)N[C@H]1C(O)OC(CO)[C@@H](O)[C@@H]1O (stereo partly drawn)', '%', 43.3),
  ('COc1nc(-c2ccc3c(c2)OCO3)n(-c2ccc(NC(=O)CSc3ccccc3)cc2)n1', '%', 82.9),
  ('O=C1c2c(O)cccc2[C@H]([C@@H]2O[C@H](CO)[C@@H](O)[C@H](O)[C@H]2O)c2cc(CO)cc(O)c21', '%', 119),
  ('CC[C@]1(O)C[C@H]2CN(CCC3=C([NH]C4=C3C=CC=C4)[C@@](C2)(C(=O)OC)C5=CC6=C(C=C5OC)N(C=O)[C@H]7[C@](O)([C@H](OC(C)=O)[C@]8(CC)\C=C/C[N@@]9CC[C@]67[C@H]89)C(=O)OC)C1', '%', 5.26);

* * *

List of AUC of viability dose-response curve values.
# System: NOMO1
# Protocol: AUC of viability dose-response curve (% viability x log10 dose units); higher = less sensitive
# Experimental Parameters: HPLM + 10% dialyzed FBS; 48 h
Property Label: AUC of viability dose-response curve

INSERT INTO assay_data (compound, test_target, numeric_value) VALUES
  ('CN1CCCN(C(=O)c2cccc(-c3ccc(/C=C4/C(=O)Nc5ccc(Cl)cc54)o3)c2)CC1', 'NOMO1', 399),
  ('Cn1c2ccccc2c2c3c(c4c5ccccc5n(CCC#N)c4c21)CNC3=O', 'NOMO1', 362),
  ('C[C@H]1CN(C[C@@H](C)O1)CC(=O)NC2=CC=C3SC4=C(CC3=C2)C=CC=C4\C5=C\C(=O)\C=C(/O5)N6CCOCC6', 'NOMO1', 397),
  ('CN[C@H](CC(C)C)C(=O)N[C@H]1C(=O)N[C@@H](CC(N)=O)C(=O)N[C@H]2C(=O)N[C@H]3C(=O)N[C@H](C(=O)N[C@H](C(=O)O)c4cc(O)cc(O)c4-c4cc3ccc4O)[C@H](O)c3ccc(c(Cl)c3)Oc3cc2cc(c3O[C@@H]2O[C@H](CO)[C@@H](O)[C@H](O)[C@H]2O[C@H]2C[C@](C)(N)[C@H](O)[C@H](C)O2)Oc2ccc(cc2Cl)[C@H]1O', 'NOMO1', 439),
  ('O=C1Nc2ccccc2/C1=C1\Nc2ccccc2C1=O', 'NOMO1', 448),
  ('CC(C)C[C@H](CN)CC(=O)O', 'NOMO1', 460),
  ('O=C1CSC(=O)N1C(CCc1ccncc1)COc1ccc(-c2cccc([N+](=O)[O-])c2)cc1 (stereo not given)', 'NOMO1', 444),
  ('Cc1cc2c(C(C)C)c(O)c(O)c(C=O)c2c(O)c1-c1c(C)cc2c(C(C)C)c(O)c(O)c(C=O)c2c1O', 'NOMO1', 445),
  ('Cc1ccc(NC(=O)C2(c3ccc4c(c3)OC(F)(F)O4)CC2)nc1-c1cccc(C(=O)O)c1', 'NOMO1', 252),
  ('O=C(O)[C@H](Cc1c[nH]c2ccccc12)N1C(=O)c2ccccc2C1=O', 'NOMO1', 440);
